System: MDA-MB-231 breast
Experiment: NCI-60 one-dose screen, 48 h
Settings: 10 µM unless noted
About 83,000 compounds went through this panel and 20% of them were active in at least one assay; those are over-represented in the sample as a whole. Active and inactive are the calls of the source. How the source made its calls: active means growth percent below 10; inactive means the rest.
Output constraint: value belongs to yes (1) (active), no (0) (inactive)

- C=C(C)[C@@H]1CC[C@@]2(C(=O)O)CC[C@]3(C)C(CCC4[C@@]5(C)CCC(OS(=O)(=O)c6ccccc6)C(C)(C)C5CC[C@]43C)C12 (some centres undefined): no (0)
- Cc1cc(C(c2ccccc2)c2ccccc2)ccc1NS(=O)(=O)c1ccccc1: no (0)
- O=C(CC12CC3CC(CC(C3)C1)C2)NCCOCCOCCNC(=O)c1cc2c(o1)C(=O)c1ccccc1C2=O: yes (1)

Ask | Record request — test call for COc1ccc2cc(-c3ccc(C(=O)NN)c(C)n3)ccc2c1
Reply | no (0)

Ask | Record request — test call for COc1ccc(N=c2nc3sc4cc(Cl)ccc4n3c(N)c2C#N)cc1
Reply | no (0)

Ask | Record request — test call for C=C(C)[C@@H]1CC[C@]2(CN)CC[C@]3(C)[C@H](CC[C@@H]4[C@@]5(C)CCC(N)[C@@](C)(CO)[C@@H]5CC[C@]43C)[C@@H]12 (some centres undefined)
Reply | yes (1)

The reported numbers originate from PubChem BioAssay (NCI).
